Each recorded value in this set is attributed to patent US20130288331A1.

For each of the compounds below, state its IC50.
- System Name: HIV-1 protease (Human immunodeficiency virus type 1 group M subtype B)
Answers are plain numbers, in µM.

Ask | If you can, please state the reported IC50 value of CC[C@H](C)C1C(=O)CC(=O)N1[C@H]1CCN(C2=CC(=O)N[C@H]2CC(C)C)C1 (stereo partly drawn) [Compound 2li-H] .
Reply | 623

Ask | Fill in: IC50 of CC[C@H](C)[C@H]1C(=O)CC(=O)N1[C@H]1CCN(C2=CC(=O)N([C@H]3CCN(C4=CC(=O)N[C@H]4CC(C)C)C3)[C@H]2C)C1 [Compound 1lai-H] is ___
Reply | 3.7

Ask | Quick check: IC50 of CC(C)C[C@@H]1NC(=O)C=C1N1CC[C@H](N2C(=O)C=C(NCCOCCOCCNC3=CC(=O)N([C@H]4CCN(C5=CC(=O)N[C@H]5CC(C)C)C4)[C@H]3C)[C@@H]2C)C1 [Compound 13] ?
Reply | 84.4

Ask | Recorded IC50 for CC[C@H](C)[C@H]1C(OC(C)(C)C)=CC(=O)N1[C@H]1CCN(C2=CC(=O)N([C@H]3CCN(C4=CC(=O)N[C@H]4CC(C)C)C3)[C@H]2C)C1 [1lai-^tBu] , please?
Reply | 111

Ask | Entry under review: CC(C)C[C@H]1C(=O)CC(=O)N1[C@H]1CCN(C2=CC(=O)N[C@H]2Cc2ccccc2)C1 [Compound 2fl-H] . Reported IC50?
Reply | 419

Moving on to the next compound.
Ask | For the compound CC(C)C[C@H]1C(OC(C)(C)C)=CC(=O)N1[C@H]1CCN(C2=CC(=O)NC2Cc2ccccc2)C1 (stereo partly drawn) [2fl-^tBu] , what IC50 is on record?
Reply | 516
